Target: Mouse TLR7 (Mus musculus)
Construct: endogenous in cells; host or cells: female BALB/c mice, in vivo
Sequence (P58681 27-1050): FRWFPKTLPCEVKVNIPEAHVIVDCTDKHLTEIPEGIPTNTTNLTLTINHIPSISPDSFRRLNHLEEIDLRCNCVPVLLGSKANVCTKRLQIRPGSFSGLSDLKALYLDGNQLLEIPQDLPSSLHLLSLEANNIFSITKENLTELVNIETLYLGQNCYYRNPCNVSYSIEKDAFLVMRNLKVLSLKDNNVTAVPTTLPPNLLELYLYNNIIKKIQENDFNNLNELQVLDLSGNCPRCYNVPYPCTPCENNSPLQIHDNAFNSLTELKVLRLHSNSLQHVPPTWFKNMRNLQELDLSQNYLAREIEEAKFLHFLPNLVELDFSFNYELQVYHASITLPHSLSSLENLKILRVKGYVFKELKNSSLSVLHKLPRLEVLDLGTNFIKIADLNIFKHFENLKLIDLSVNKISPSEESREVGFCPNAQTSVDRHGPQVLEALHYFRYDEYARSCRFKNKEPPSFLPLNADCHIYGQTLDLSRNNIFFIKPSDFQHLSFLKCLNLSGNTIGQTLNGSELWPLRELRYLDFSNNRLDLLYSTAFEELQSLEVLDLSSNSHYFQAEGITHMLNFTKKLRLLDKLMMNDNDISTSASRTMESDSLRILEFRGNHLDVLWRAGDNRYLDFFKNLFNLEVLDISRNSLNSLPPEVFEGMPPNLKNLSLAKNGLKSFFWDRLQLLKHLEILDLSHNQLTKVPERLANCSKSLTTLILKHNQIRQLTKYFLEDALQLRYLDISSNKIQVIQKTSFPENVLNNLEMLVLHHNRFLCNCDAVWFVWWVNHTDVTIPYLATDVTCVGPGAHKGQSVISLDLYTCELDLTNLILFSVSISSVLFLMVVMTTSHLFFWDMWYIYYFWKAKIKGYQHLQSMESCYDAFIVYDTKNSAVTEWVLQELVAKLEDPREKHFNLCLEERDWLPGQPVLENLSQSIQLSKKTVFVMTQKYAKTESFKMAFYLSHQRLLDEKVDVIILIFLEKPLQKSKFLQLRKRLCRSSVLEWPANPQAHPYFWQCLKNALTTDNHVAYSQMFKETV
Experiment: HEK-293 NF-kappaB luciferase reporter assay, CL097 stimulus
Format: cell-based
Conditions: ligand CL097, analyte NFkB-luciferase
measured.endpoint: pIC50
// field semantics: pIC50 = negative decimal log of concentration (mol/L)

For this molecule ( "COc1ccc([C@@H]2C[C@H](C(F)(F)F)n3nc(-c4ccc(C(=O)N5CCNCC5)cc4)cc3N2)cc1OC" ), measured pIC50 is 6.56

----------
Biological target: Human TLR9 (Homo sapiens, UniProt Q9NR96)
Sequence (Q9NR96 26-1032): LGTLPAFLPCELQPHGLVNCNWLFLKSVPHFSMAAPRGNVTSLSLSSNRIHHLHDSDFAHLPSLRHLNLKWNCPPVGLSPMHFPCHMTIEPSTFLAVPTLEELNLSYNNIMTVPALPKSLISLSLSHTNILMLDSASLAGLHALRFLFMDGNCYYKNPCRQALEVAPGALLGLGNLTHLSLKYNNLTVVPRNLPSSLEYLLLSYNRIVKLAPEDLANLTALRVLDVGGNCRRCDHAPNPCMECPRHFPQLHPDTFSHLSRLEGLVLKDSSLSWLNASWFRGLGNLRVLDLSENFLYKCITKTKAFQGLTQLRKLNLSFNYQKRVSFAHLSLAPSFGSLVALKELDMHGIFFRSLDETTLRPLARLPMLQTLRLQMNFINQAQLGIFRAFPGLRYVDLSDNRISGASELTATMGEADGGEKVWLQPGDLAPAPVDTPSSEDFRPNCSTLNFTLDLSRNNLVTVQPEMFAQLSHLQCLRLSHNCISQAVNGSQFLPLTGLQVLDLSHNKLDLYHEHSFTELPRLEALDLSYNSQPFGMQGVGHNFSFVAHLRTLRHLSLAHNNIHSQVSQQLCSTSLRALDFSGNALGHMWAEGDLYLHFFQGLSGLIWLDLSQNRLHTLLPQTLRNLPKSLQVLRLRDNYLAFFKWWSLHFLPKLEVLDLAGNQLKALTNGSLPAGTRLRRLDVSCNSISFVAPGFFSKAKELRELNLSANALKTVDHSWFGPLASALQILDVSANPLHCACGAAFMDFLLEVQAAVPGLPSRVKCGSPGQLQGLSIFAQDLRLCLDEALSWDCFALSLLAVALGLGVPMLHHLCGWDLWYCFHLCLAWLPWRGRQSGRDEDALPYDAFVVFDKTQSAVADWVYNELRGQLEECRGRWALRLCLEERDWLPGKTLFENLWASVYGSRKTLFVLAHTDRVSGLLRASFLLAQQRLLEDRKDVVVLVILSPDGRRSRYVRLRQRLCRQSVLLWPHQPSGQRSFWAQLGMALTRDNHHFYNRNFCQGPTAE
Test: Human PBMC cell-based assay, CpG-ODN stimulus, IL-6 ELISA
Parameters: endogenous in cells; host or cells: primary human PBMC from healthy donor blood
Conditions: Hu PBMC; ligand CpG-ODN; analyte IL-6
Each item that follows carries a reported IC50.

> print(dat)
                                   compound  measured.endpoint  endpoint.result
1  CCN(CCO)CCCC(C)Nc1ccnc2cc(Cl)ccc12 (centres unmarked) [HCQ, Hydroxychloroquine, reference compound]               IC50    150 to 300 nM

For this compound ( "COc1ccc([C@@H]2C[C@H](C(F)(F)F)n3nc(-c4ccc(C(=O)N5CCNCC5)cc4)cc3N2)cc1OC" ), measured IC50 is > 10000 nM

----------
Target: Human TLR9 (Homo sapiens, UniProt Q9NR96)
Assay: HEK-293 NF-kappaB luciferase reporter assay, CpG-ODN stimulus
Assay type: cell-based
Set-up: engineered to stably and individually express human TLR4, TLR7 or TLR9 full-length ORF cDNAs; expressed in transfected cells; host or cells: HEK-293 (ATCC) with ELAM-1 NF-kappaB luciferase reporter
Conditions: ligand CpG-ODN, analyte NFkB-luciferase
measured.endpoint: IC50

For this compound ( COc1ccc([C@@H]2C[C@H](C(F)(F)F)n3nc(-c4ccc(C(=O)N5CCNCC5)cc4)cc3N2)cc1OC [ER-892887] ), measured IC50 is > 10 µM

----------
Molecular target: Mouse TLR7 (Mus musculus)
Construct: endogenous in cells; host or cells: female BALB/c mice, in vivo
Experiment: Mouse spleen cell-based assay, R848 stimulus, IL-6 ELISA
Settings: Mouse Splenocyte IL-6 Inhibition (R848 Ligand); read-out: Mouse Splenocyte IC50
pIC50: −log10 of the molar value.
Classify by measured pIC50: Condition met if it is equal to or exceeds 6, Condition not met if it is smaller.

> print(dat)
                                   compound  qualitative.label
1  COc1ccc([C@H]2C[C@@H](C(F)F)n3nc(-c4ccc(C(=O)N5CCNCC5)cc4)cc3N2)cc1OC      Condition met
2  COc1ccc(C2CC(C(F)F)n3nc(-c4ccc(C(=O)N5CCNCC5)cc4)cc3N2)cc1OC (racemic)      Condition met
3  Cc1nn(C)cc1[C@@H]1C[C@H](C(F)(F)F)n2nc(-c3ccc(NC(N)=O)cc3)cc2N1  Condition not met
4  Cc1nn(C)cc1[C@H]1C[C@@H](C(F)(F)F)n2nc(-c3ccc(NC(N)=O)cc3)cc2N1  Condition not met
5  Cc1nn(C)cc1[C@@H]1C[C@H](C(F)(F)F)n2nc(-c3ccc4nn(C)cc4c3)cc2N1  Condition not met

Data request: Is pIC50 for "COc1ccc([C@@H]2C[C@H](C(F)F)n3nc(-c4ccc(C(=O)N5CCNCC5)cc4)cc3N2)cc1OC" at or above 6?
Data returned: Condition met
